measuredTarget: 5-hydroxytryptamine receptor 1A (Homo sapiens)
Sequence (P08908 whole entry): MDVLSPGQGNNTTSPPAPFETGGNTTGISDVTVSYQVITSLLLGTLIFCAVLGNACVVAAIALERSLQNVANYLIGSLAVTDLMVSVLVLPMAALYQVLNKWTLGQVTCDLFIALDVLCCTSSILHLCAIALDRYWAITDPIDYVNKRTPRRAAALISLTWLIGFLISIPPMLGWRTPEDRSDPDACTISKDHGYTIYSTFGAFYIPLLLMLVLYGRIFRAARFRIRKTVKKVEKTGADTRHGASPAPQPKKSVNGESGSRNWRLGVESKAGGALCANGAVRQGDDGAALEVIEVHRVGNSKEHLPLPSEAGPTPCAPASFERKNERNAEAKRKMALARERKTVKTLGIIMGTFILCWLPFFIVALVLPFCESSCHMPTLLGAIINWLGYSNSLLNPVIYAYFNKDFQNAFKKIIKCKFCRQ
propertyLabel: Ki (nM)
Give bare numbers, in nM.

CCN1CC(CNCCc2c[nH]c3ccc(F)cc23)Oc2ccccc21 (stereo not drawn) ... 15.3
Fc1ccc2[nH]cc(CCNCC3CN(c4ccccc4)c4ccccc4O3)c2c1 (stereo not drawn) ... 7.14

Could you now look at the following molecule, please?
Could you share which Ki value was measured for CN1CC(CNCCc2c[nH]c3ccccc23)Oc2ccccc21 (stereo not drawn) ?
5.86

From: ChEMBL document CHEMBL1138978
